B1: Azoarcus group I ribozyme (parent)
chain: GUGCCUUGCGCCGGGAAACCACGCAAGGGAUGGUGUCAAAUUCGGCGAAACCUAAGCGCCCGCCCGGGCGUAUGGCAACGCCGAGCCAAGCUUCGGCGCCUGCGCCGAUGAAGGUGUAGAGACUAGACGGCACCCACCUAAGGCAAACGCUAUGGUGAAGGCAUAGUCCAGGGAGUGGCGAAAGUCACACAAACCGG

Variants of: B1
Experimental details: reverse-splicing fitness (ratio to wild type); higher = more active; in vitro selection; Mg2+ level not given
Readout: reverse-splicing fitness
Kindly provide the number alone.

I have this variant here, C82A A111G A120G A145C C150U , and I need its recorded reverse-splicing fitness. 0.0102

I have this variant here, C82U A111G A120C A145C C169U , and I need its recorded reverse-splicing fitness. 0.0106

I have this variant here, A120G A145G C150G C169U U176A , and I need its recorded reverse-splicing fitness. 0.0263

I have this variant here, C82G A120G C150A C169G U176C , and I need its recorded reverse-splicing fitness. 0.0228

I have this variant here, C82G A120U A145G C169U U176C , and I need its recorded reverse-splicing fitness. 0.00453

I have this variant here, C82U A120C A145C C150U C169G U176A , and I need its recorded reverse-splicing fitness. 0.0142

I have this variant here, A120U A145C C169A U176A , and I need its recorded reverse-splicing fitness. 0.00275

I have this variant here, C82A C150U U176A , and I need its recorded reverse-splicing fitness. 0.24

I have this variant here, A111C A120U C169G U176A , and I need its recorded reverse-splicing fitness. 0.00529

I have this variant here, C82G A111U A120G A145C C150U , and I need its recorded reverse-splicing fitness. 0.00849

I have this variant here, C82U A120U A145C C169U U176C , and I need its recorded reverse-splicing fitness. 0.00289

I have this variant here, C82U A120G C169U U176C , and I need its recorded reverse-splicing fitness. 0.0176

I have this variant here, C82G A120C C150U C169A U176G , and I need its recorded reverse-splicing fitness. 0.00618

I have this variant here, C82G A111G A120C C150U U176A , and I need its recorded reverse-splicing fitness. 0.0201

I have this variant here, C82A A120G A145U C150A C169A , and I need its recorded reverse-splicing fitness. 0.00876

I have this variant here, C82A A145C C150A C169A U176A , and I need its recorded reverse-splicing fitness. 0.0113

I have this variant here, C82G A111U A120C A145U C150G C169A , and I need its recorded reverse-splicing fitness. 0.00911

I have this variant here, C82A A120C A145G C150A U176C , and I need its recorded reverse-splicing fitness. 0.03

I have this variant here, C169U U176G , and I need its recorded reverse-splicing fitness. 0.0131

I have this variant here, C82U A120G A145G C150U C169A U176C , and I need its recorded reverse-splicing fitness. 0.0154

I have this variant here, C82G A120U A145C C150A C169A U176G , and I need its recorded reverse-splicing fitness. 0.00157

I have this variant here, A111U A120G A145G C150U U176C , and I need its recorded reverse-splicing fitness. 0.0446

I have this variant here, A111U A120C A145G C150U C169A U176C , and I need its recorded reverse-splicing fitness. 0.0138

I have this variant here, C82G A111G A145G C169A U176G , and I need its recorded reverse-splicing fitness. 0.0057

I have this variant here, A120C A145C C169A U176A , and I need its recorded reverse-splicing fitness. 0.00918

I have this variant here, A111G A120C A145C C169G U176C , and I need its recorded reverse-splicing fitness. 0.00881

I have this variant here, C82A A111G A145C U176C , and I need its recorded reverse-splicing fitness. 0.248

I have this variant here, C82U A111U A120G A145G C169U U176A , and I need its recorded reverse-splicing fitness. 0.0196

I have this variant here, A120G A145C C150G C169G U176C , and I need its recorded reverse-splicing fitness. 0.0117

I have this variant here, C82U A111U A145G C150U C169U U176G , and I need its recorded reverse-splicing fitness. 0.00571

I have this variant here, C82G A111U A120G A145U C150G C169A U176A , and I need its recorded reverse-splicing fitness. 0.0104

I have this variant here, C82A A111U A120C A145C C150U , and I need its recorded reverse-splicing fitness. 0.0149

I have this variant here, C82A A111G A145C C169A U176C , and I need its recorded reverse-splicing fitness. 0.00756

I have this variant here, C82U C150A C169A U176C , and I need its recorded reverse-splicing fitness. 0.0149

I have this variant here, C82G A111C A145G C150U C169U , and I need its recorded reverse-splicing fitness. 0.0115

I have this variant here, C82A A111U A120U C150U C169G U176A , and I need its recorded reverse-splicing fitness. 0.00965

I have this variant here, C82A A111U A120G C169U U176A , and I need its recorded reverse-splicing fitness. 0.0201

I have this variant here, C82U A145C C150A C169A , and I need its recorded reverse-splicing fitness. 0.00751

I have this variant here, C82U A111G C150U C169U U176C , and I need its recorded reverse-splicing fitness. 0.0133

I have this variant here, C82A A111C A120U A145C C150U , and I need its recorded reverse-splicing fitness. 0.00922

I have this variant here, C82A A111U C150G C169U U176A , and I need its recorded reverse-splicing fitness. 0.00699

I have this variant here, A111U A120C A145C C150G C169U , and I need its recorded reverse-splicing fitness. 0.0236

I have this variant here, A120C A145G C150G , and I need its recorded reverse-splicing fitness. 0.234

I have this variant here, C82U A111G A120G C150U C169A U176G , and I need its recorded reverse-splicing fitness. 0.00504

I have this variant here, C82G A111C A120G A145G C150G C169G U176C , and I need its recorded reverse-splicing fitness. 0.0123

I have this variant here, A111C A120U C150A C169G U176A , and I need its recorded reverse-splicing fitness. 0.00448

I have this variant here, C82G A111G A145C C150A C169A U176G , and I need its recorded reverse-splicing fitness. 0.00663

I have this variant here, C82A A111C A120U A145C C150U C169G U176A , and I need its recorded reverse-splicing fitness. 0.00406

I have this variant here, C82U A111U A120C A145G C150A C169G , and I need its recorded reverse-splicing fitness. 0.00791

I have this variant here, C82G A111G A120G A145U C169A U176C , and I need its recorded reverse-splicing fitness. 0.0152

I have this variant here, C82G C150U C169U , and I need its recorded reverse-splicing fitness. 0.0143

I have this variant here, A120G A145G C150U C169G , and I need its recorded reverse-splicing fitness. 0.502

I have this variant here, C82A A111C A145U C150G U176A , and I need its recorded reverse-splicing fitness. 0.00919

I have this variant here, C82A A120U A145C C150G C169U U176A , and I need its recorded reverse-splicing fitness. 0.00283

I have this variant here, C82U A111C A120G A145U C150U C169G U176C , and I need its recorded reverse-splicing fitness. 0.0111

I have this variant here, C82G A111U A120G A145C C150U C169A U176G , and I need its recorded reverse-splicing fitness. 0.00544

I have this variant here, A145G C169G U176C , and I need its recorded reverse-splicing fitness. 0.14

I have this variant here, C82A A111U A120C A145U C169A , and I need its recorded reverse-splicing fitness. 0.00981

I have this variant here, C82U A111G A120G A145G C150U U176A , and I need its recorded reverse-splicing fitness. 0.00859

I have this variant here, A111G A145C C150G C169A U176A , and I need its recorded reverse-splicing fitness. 0.0077

I have this variant here, A120C C150U U176A , and I need its recorded reverse-splicing fitness. 0.643

I have this variant here, C82U A111G A145C C169A U176G , and I need its recorded reverse-splicing fitness. 0.00408

I have this variant here, C82G A111C A120U A145U C150G C169U U176A , and I need its recorded reverse-splicing fitness. 0.00309

I have this variant here, C82U A120G A145C C150U U176G , and I need its recorded reverse-splicing fitness. 0.00347

I have this variant here, A111C A120G A145C C150G C169A U176A , and I need its recorded reverse-splicing fitness. 0.00964

I have this variant here, C82A A111G A120C A145G C150U C169A U176A , and I need its recorded reverse-splicing fitness. 0.0194

I have this variant here, A111G A120C A145C C150G C169U U176A , and I need its recorded reverse-splicing fitness. 0.00771

I have this variant here, A111C A120G C150G C169U U176A , and I need its recorded reverse-splicing fitness. 0.00966

I have this variant here, C82A A111U A120G A145C C169G U176A , and I need its recorded reverse-splicing fitness. 0.0247

I have this variant here, C82U C150A C169G U176G , and I need its recorded reverse-splicing fitness. 0.00558

I have this variant here, C82A C150U U176C , and I need its recorded reverse-splicing fitness. 0.253

I have this variant here, C82U A111U A145C C150A C169G , and I need its recorded reverse-splicing fitness. 0.00741

I have this variant here, C82A A111C A120U C150U C169A U176C , and I need its recorded reverse-splicing fitness. 0.00323

I have this variant here, C82G A111G C150A C169A U176C , and I need its recorded reverse-splicing fitness. 0.0224

I have this variant here, C82A A111C A120G C150A C169U , and I need its recorded reverse-splicing fitness. 0.00723

I have this variant here, C82U A111U A120U A145G C150A C169A , and I need its recorded reverse-splicing fitness. 0.00571

I have this variant here, C82G A111C A120C A145U C150A C169U U176C , and I need its recorded reverse-splicing fitness. 0.0133

I have this variant here, C82A A111G A120U A145U C150A C169U , and I need its recorded reverse-splicing fitness. 0.00275

I have this variant here, A120C A145C C150U C169G U176C , and I need its recorded reverse-splicing fitness. 0.00823

I have this variant here, C82G A111G A120C A145G C150G C169A U176G , and I need its recorded reverse-splicing fitness. 0.0091

I have this variant here, C82A A111U A120G A145U C169U U176G , and I need its recorded reverse-splicing fitness. 0.0047

I have this variant here, C82U A111U A120C C150G C169G , and I need its recorded reverse-splicing fitness. 0.00613

I have this variant here, C82U A120U A145G C150U C169U U176C , and I need its recorded reverse-splicing fitness. 0.00389

I have this variant here, C82G A111U A145C C150G C169U U176C , and I need its recorded reverse-splicing fitness. 0.0102

I have this variant here, C82A A111G A145G C169U U176A , and I need its recorded reverse-splicing fitness. 0.0137

I have this variant here, C82U A111C A145C C150G , and I need its recorded reverse-splicing fitness. 0.024

I have this variant here, C82A A120U A145G C150U , and I need its recorded reverse-splicing fitness. 0.116

I have this variant here, A111U A120C A145C C150U C169U U176G , and I need its recorded reverse-splicing fitness. 0.0056

I have this variant here, C82G A111G A120U C150A C169G , and I need its recorded reverse-splicing fitness. 0.00433

I have this variant here, A111C A120C A145C C150U C169G , and I need its recorded reverse-splicing fitness. 0.00649

I have this variant here, C82A A111G C169G U176A , and I need its recorded reverse-splicing fitness. 0.0181
